assay system: human adenosine A2A receptor (Homo sapiens, UniProt P29274)
Construct: host or cells: HEK-293 cells (membranes)
Sequence (P29274 whole entry): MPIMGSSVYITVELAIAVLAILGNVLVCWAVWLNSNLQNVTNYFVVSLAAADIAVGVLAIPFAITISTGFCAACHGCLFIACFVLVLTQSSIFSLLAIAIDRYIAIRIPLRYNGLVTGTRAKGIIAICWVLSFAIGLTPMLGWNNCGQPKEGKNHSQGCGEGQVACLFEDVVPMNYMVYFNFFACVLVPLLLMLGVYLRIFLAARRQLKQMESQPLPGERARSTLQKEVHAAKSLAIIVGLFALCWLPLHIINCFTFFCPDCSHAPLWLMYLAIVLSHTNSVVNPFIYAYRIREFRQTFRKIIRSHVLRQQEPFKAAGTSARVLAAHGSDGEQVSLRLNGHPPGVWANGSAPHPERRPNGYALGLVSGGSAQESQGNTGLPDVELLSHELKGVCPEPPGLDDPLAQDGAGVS
protocol notes: Adenosine A2A receptor binding test (3H-CGS21680 binding)
condition notes: compound at 100 nmol/L; Table 2, measured by Ricerca Biosciences, LLC; read-out: Inhibitory rate for human adenosine A2A receptor binding (3H-CGS21680 binding)
Recorded inhibition at 0.1 µM for the following compounds
measurement type: inhibition at 0.1 µM

{"columns": ["compound", "recorded result"],
 "data": [
  ["O=C(Nc1nc(-c2ccco2)c(C(=O)C2CCOCC2)s1)c1cnc2c(c1)CSCC2 [(IX)]", "101%"],
  ["O=C(Nc1nc(-c2ccoc2)c(C(=O)C2CCOCC2)s1)c1cnc2c(c1)CCC2 [(IAA)]", "98%"],
  ["O=C(Cc1cccnc1)Nc1nc(-c2ccco2)c(C(=O)C2CCOCC2)s1 [(IF)]", "107%"],
  ["O=C(Nc1nc(-c2ccco2)c(C(=O)C2CCOCC2)s1)c1cnc2ccccc2c1 [(IP)]", "98%"],
  ["CC(C)OCc1cc(C(=O)Nc2nc(-c3ccco3)c(C(=O)C3CCOCC3)s2)ccn1 [(IL)]", "85%"],
  ["CCc1cncc(C(=O)Nc2nc(-c3ccco3)c(C(=O)C3CCOCC3)s2)c1 [(IR)]", "107%"],
  ["Cc1cc(C(=O)Nc2nc(-c3ccco3)c(C(=O)C3CCOCC3)s2)cnc1C [(IQ)]", "100%"],
  ["CC(=O)c1cc(C(=O)Nc2nc(-c3ccco3)c(C(=O)C3CCOCC3)s2)cnc1C [(IY)]", "97%"],
  ["O=C(Nc1nc(-c2ccco2)c(C(=O)C2CCOCC2)s1)c1ccnc(CN2CCOCC2)c1 [(II)]", "85%"]
]}

---

assay system: human adenosine A2A receptor (Homo sapiens, UniProt P29274)
Construct: host or cells: HEK-293 cells (membranes)
protocol notes: Adenosine A2A receptor binding test (3H-CGS21680 binding)
condition notes: compound at 100 nmol/L; Table 2, measured by Ricerca Biosciences, LLC; read-out: Inhibitory rate for human adenosine A2A receptor binding (3H-CGS21680 binding)
measurement type: inhibition at 0.1 µM (%)

{"columns": ["molecule", "measurement type", "recorded result"],
 "data": [
  ["CCOCc1cc(C(=O)Nc2nc(-c3ccco3)c(C(=O)C3CCOCC3)s2)ccn1 [(IK)]", "inhibition at 0.1 µM", 92],
  ["O=C(Nc1nc(-c2ccco2)c(C(=O)C2CCOCC2)s1)c1cc2ccccc2[nH]1 [(IU)]", "inhibition at 0.1 µM", 110],
  ["O=C(Nc1nc(-c2ccco2)c(C(=O)C2CCOCC2)s1)c1cnc2occc2c1 [(IM)]", "inhibition at 0.1 µM", 98],
  ["O=C(Cc1ccccn1)Nc1nc(-c2ccco2)c(C(=O)C2CCOCC2)s1 [(IN)]", "inhibition at 0.1 µM", 93],
  ["O=C(Nc1nc(-c2ccco2)c(C(=O)C2CCOCC2)s1)c1ccc[nH]1 [(IG)]", "inhibition at 0.1 µM", 102]
]}
